// provenance: PubChem BioAssay

- assay-name: Restrictive medium S. cerevisiae growth inhibition, OD615, pilot screen of yeast lifespan reduction project, restrictive growth control (AID 706);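 also: modified DeaD lifespan yeast strain shifted to restrictive glucose medium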
- condition-notes: OD615, 48 h, at 10 µM, active compounds read high
property: growth inhibition (%)
Entry rule: numbers only, all in %.

CC1CC=C2C(C#N)=C(N)C(C#N)(C#N)C(c3cccs3)C2C1 (stereo unspecified)
-6.39

Shift focus to the following entry.
## Task What growth inhibition value was documented for this molecule, Cc1cc(Nc2cc(F)ccc2C)n2nc(C)nc2n1 ?
## Result -7.35

###

The following compounds are listed with their measured viability increase values.
- assay-name: viability gain of MRP-1-high H69AR cells under doxorubicin, pilot screen, MRP-1 activator project, CellTiter-Glo, duplicate (AID 807);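 also: compound pretreatment 18-22 h then 72 h combined with doxorubicin; 0% = doxorubicin alone and 100% = vehicle without doxorubicin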
- condition-notes: H69AR viability with doxorubicin, CellTiter-Glo luminescence; at 10 µM; active compounds read high
Numbers only here, please. The scale is %.

Observe how each entry below is paired with its result.
Cc1cccc(-c2nc(CS(=O)CC(=O)N3CCCCC3)c(C)o2)c1 (stereo unspecified)
-0.7
Cc1ccc(NC(=O)C2CCCN2S(=O)(=O)c2ccc3c(c2)CCC(=O)N3)cc1Cl (stereo unspecified)
3.52
O=C(NC1CCCCC1)C(c1ccccc1)N1CCCC1 (stereo unspecified)
-1.59
O=C(NCCOC(=O)c1ccc(C(=O)OCCNC(=O)c2ccccc2)o1)c1ccccc1
0.02
CCCC1(C(=O)O)NC(c2ccccc2O)C2C(=O)N(c3cccc(Cl)c3)C(=O)C21 (stereo unspecified)
0.1

## Task Value lookup for viability increase; key = O=S(=O)(NC1c2cccc3cccc(c23)C1N1CCNCC1)c1ccccc1 (stereo unspecified)
## Result -5.27

## Task Look at this compound and give its reported viability increase. CCC(C)NC(=O)c1ccc(NC(=O)C2CCCO2)cc1 (stereo unspecified)
## Result 3.38

## Task Could you share which viability increase value was measured for CCOc1ccc(C(=O)Nn2cnnc2)cc1 ?
## Result 0.25

## Task Reported viability increase, compound O=C(Nc1ccc2nc3n(c(=O)c2c1)CCCCC3)c1ccccn1 : ____
## Result 1.28

## Task If you can, please state the reported viability increase value of Cc1cccc(-c2nc(CS(=O)CC(=O)N3CCc4ccccc4C3)c(C)o2)c1 (stereo unspecified) .
## Result -4.54

## Task Please report the recorded viability increase for O=C(Cn1ncc2c1-c1ccccc1OC2)N(Cc1ccco1)C1CCCCC1 .
## Result -2.69

###

- assay-name: viability gain of MRP-1-high H69AR cells under doxorubicin, pilot screen, MRP-1 activator project, CellTiter-Glo, duplicate (AID 807);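 also: compound pretreatment 18-22 h then 72 h combined with doxorubicin; 0% = doxorubicin alone and 100% = vehicle without doxorubicin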
- condition-notes: H69AR viability with doxorubicin, CellTiter-Glo luminescence; at 10 µM; active compounds read high
The source made the active and inactive calls.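 Rule for the calls: active = viability increase at or above a cutoff of the median across tested compounds plus 3 SD (cut at about 8.5% in these data, passing the limit was not always enough); inconclusive = some gains above the cutoff, reason not given; inactive = the rest.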
property: viability increase

Check out these entries, answers already filled in.
CC(=O)c1ccc(OCC(O)CN2CCN(c3ccccn3)CC2)cc1 (stereo unspecified)
0.37% (inactive)
Cn1c(NC(=O)CC(C)(C)C)cc(=O)n(C)c1=O
-0.07% (inactive)
CN(C)c1cc(-c2ccccc2)nc(N)n1
-6.2% (inactive)
Cc1ccc(-c2nc(CS(=O)(=O)CC(=O)NCCCN3CCN(C)CC3)c(C)o2)cc1
0.53% (inactive)
C=CCOc1cccc(C2C(C(=O)c3ccco3)=C(O)C(=O)N2CCN2CCOCC2)c1 (stereo unspecified)
-2.85% (inactive)

Please turn your attention to the following entry.
## Task Which viability increase is reported for this compound? Cc1nc2ccccc2n1-c1ccccc1
## Result 0.08% (inactive)

###

- assay-name: viability gain of MRP-1-high H69AR cells under doxorubicin, pilot screen, MRP-1 activator project, CellTiter-Glo, duplicate (AID 807);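 also: compound pretreatment 18-22 h then 72 h combined with doxorubicin; 0% = doxorubicin alone and 100% = vehicle without doxorubicin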
- condition-notes: H69AR viability with doxorubicin, CellTiter-Glo luminescence; at 10 µM; active compounds read high
// reported viability increase per item
// return numeric value only (unit: %, not printed)

Examples with their reported viability increase follow.
CSC1=NCCN1C(=O)Cc1ccc(F)cc1
2.96
CCOCCCNC(=O)CN1C(=O)CSc2ccccc21
-0.22
CCn1ncc(C2=NOC(C(=O)Nc3c(C)n(C)n(-c4ccccc4)c3=O)C2)c1C (stereo unspecified)
0.26
CCCCN(C(=O)NC(=O)C1=C(N2CCOCC2)/C(=C/c2ccccc2)CC1)S(C)(=O)=O
-2.95

## Task Any idea what its viability increase is? The compound is Clc1ccc(C=NC23CN4CN(CN(C4)C2)C3)cc1
## Result -1.39

## Task Any idea what its viability increase is? The compound is OCCn1c(SCCOc2ccccc2F)nc2ccccc21
## Result -3.24

## Task Can you share its viability increase? I mean this compound: Cc1nc(SC(C)C)[nH]c(=O)c1Cc1ccccc1
## Result -0.89

## Task What does the data say about its viability increase? Entry: O=C(Cn1nc(Cc2cccnc2)c2ccccc2c1=O)NCc1ccc2c(c1)OCO2
## Result -1.57

###

- assay-name: growth suppression of PTEN-deleted HCT116, pilot screen, cell-based, HCT116 clonal line, CellTiter-Glo (AID 824);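 also: 0% = 20 µM Hyamine control and 100% = vehicle cell control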
- condition-notes: 60 h, at 10 µM, active compounds read low
Inconclusive results are not listed.
property: viability (%)
Give the quantity in %, number only.

Use these answered entries as a reference point.
CCOc1cccc(C2c3c(oc4ccccc4c3=O)C(=O)N2c2ccccn2)c1 (centres undefined)
93.9
CCn1nnnc1-c1ccc(OC)c(S(=O)(=O)NCCc2ccccc2)c1
97.3
O=C(NCCCN1CCN(c2ccccc2F)CC1)C1CCC(=O)N1C1CCCC1 (centres undefined)
93.6
O=C1NC(c2ccco2)Nc2sc3c(c21)CCN(Cc1ccccc1)C3 (centres undefined)
94
c1ccc(OCc2nn3c(-c4ccccn4)nnc3s2)cc1
94
COc1ccc(C2C(C(=O)Nc3cccc(C)n3)c3ccccc3C(=O)N2C)cc1OC (centres undefined)
99.6

## Task Form field: reported viability of O=C(c1ccc(S(=O)(=O)N2CCCC2)cc1)N1CCCc2ccccc21
## Result 92.4

## Task Recorded viability of O=C1c2ccccc2CCC1C(O)c1ccccn1 (centres undefined) , please.
## Result 99.2

###

Listing of recorded growth inhibition by entry.
- assay-name: OD615 S. cerevisiae growth inhibition, permissive medium, pilot counter-assay, permissive growth control for S. cerevisiae lifespan shortening project (AID 705)
- condition-notes: OD615, 24 h, at 10 µM, active compounds read high
Field format: number, assumed %, no unit text.

COc1ccccc1C(=O)Nc1ccc2oc(-c3ccc(F)cc3)nc2c1
-2.88
Cc1nc2c(c(C)nn2-c2ccccc2)c(C)c1Cl
-4.98
CCOC(=O)c1nnc2cc(-c3ccccc3)nn2c1C
3.76
CCOc1ccc(-n2c(Cc3cc(=O)[nH]c(=O)[nH]3)nnc2SCC(=O)OC)cc1
-2.32
Cc1ccc(S(=O)(=O)N(C)CCCC(=O)N2CCOCC2)cc1
-17.3

Now consider the entry below.
## Task Which growth inhibition reading was recorded for the molecule CCOC(=O)CNC(=O)Cn1cnc2sc(C)c(S(=O)(=O)N3CCC(C)CC3)c2c1=O ?
## Result -5.06

###

- assay-name: Restrictive medium S. cerevisiae growth inhibition, OD615, pilot screen of yeast lifespan reduction project, restrictive growth control (AID 706);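 also: modified DeaD lifespan yeast strain shifted to restrictive glucose medium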
- condition-notes: OD615, 48 h, at 10 µM, active compounds read high
Quick reference for growth inhibition among some compounds
Field: numeric (%). Do not append units.

## Task Which growth inhibition value belongs to COCCCN1CC23C=CC(O2)C(C(=O)O)C3C1=O (stereo unspecified) ?
## Result -2.98

## Task For CCOC(=O)Cn1c(=O)oc2cc(S(=O)(=O)N3CCN(c4ccccn4)CC3)ccc21 , what is its reported growth inhibition?
## Result 6.56

## Task Quick one: growth inhibition of NC(=O)c1cc(S(=O)(=O)Nc2cccc(F)c2)co1 ?
## Result -9.41

###

- assay-name: viability gain of MRP-1-high H69AR cells under doxorubicin, pilot screen, MRP-1 activator project, CellTiter-Glo, duplicate (AID 807);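 also: compound pretreatment 18-22 h then 72 h combined with doxorubicin; 0% = doxorubicin alone and 100% = vehicle without doxorubicin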
- condition-notes: H69AR viability with doxorubicin, CellTiter-Glo luminescence; at 10 µM; active compounds read high
Items are presented alongside their recorded viability increase.
API: value field is a number in %; no unit string.

Cc1ccccc1Cn1c(=O)[nH]c2ccccc21
0.06
CC(=O)Nc1ccc(S(=O)(=O)NC2=NCN(CCOC(=O)c3ccccc3)CN2)cc1
-1.37
O=C(CN1CCN(Cc2ccc(Cl)cc2)C1=O)NCCN1CCCC1
-0.85
CC1=C(C#N)C2C(/C1=N/O)C2(C)C (stereo unspecified)
-1.76
COc1cccc(C(=O)Nc2cc(=O)n(C)c(=O)n2C)c1OC
-2.46
CCOCCCNC(=O)c1cn(CC(C)C)c(=O)c2cc(OC)c(OC)cc12
-2.7
CCOC(=O)Cn1c(CN2CC(C)OC(C)C2)nc2c1c(=O)n(C)c(=O)n2C (stereo unspecified)
0.25
COc1cccc(C2CC(c3ccc(Cl)cc3)Nc3nc(N)nn32)c1 (stereo unspecified)
3.49

## Task viability increase lookup needed for CCCCN=C(C)c1c(O)c2ccccc2oc1=O , thanks.
## Result -1.49

## Task Give its viability increase value. Item: COc1ccccc1N1CCN(C(CNS(=O)(=O)c2cccs2)c2cccnc2)CC1 (stereo unspecified)
## Result -3.42

## Task Item under review: Cc1nc2ccc(S(=O)(=O)NC(C(=O)N3CCCCCC3)C(C)C)cc2s1 (stereo unspecified) . Reported viability increase?
## Result -1.12
